The reported numbers originate from the kinase profiling compilation of Christmann-Franck et al. (2016).

TESTED_ON: NEK6 (human) (UniProt Q9HC98)
Sequence (Q9HC98 whole entry, looked up): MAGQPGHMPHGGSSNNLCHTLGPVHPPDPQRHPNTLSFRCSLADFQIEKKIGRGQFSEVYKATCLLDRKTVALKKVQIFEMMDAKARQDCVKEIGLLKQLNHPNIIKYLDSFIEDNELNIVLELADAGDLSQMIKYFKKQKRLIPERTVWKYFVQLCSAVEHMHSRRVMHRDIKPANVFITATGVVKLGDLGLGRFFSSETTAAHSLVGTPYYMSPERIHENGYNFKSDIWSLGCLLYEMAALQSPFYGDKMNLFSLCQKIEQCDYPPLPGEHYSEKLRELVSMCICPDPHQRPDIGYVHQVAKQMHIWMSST
ASSAY_OVERVIEW: radiometric filter-binding kinase assay, Kinase HotSpot
CONDITION_DESCRIPTION: compound 0.5 µM; ATP 10 µM
Consider the following compounds; for each one, report its residual activity.
Field: numeric (%). Do not append units.

input: # query: residual activity of entry O=C1NC(=O)c2c1c1c3ccccc3n3c1c1c2c2ccccc2n1C1CCC3O1
output: 93.1

input: Can you handle O=S(=O)(c1cccc2cnccc12)N1CCCNCC1 next?
output: 97.6

input: Please answer likewise for O=c1cc(N2CCOCC2)oc2c1ccc1ccccc12
output: 92.5

input: Item: N#C/C(=C(/N)Sc1ccc(N)cc1)c1ccccc1C(F)(F)F
output: 101

----------
TESTED_ON: UniProtKB P10721
Sequence (P10721 whole entry, looked up): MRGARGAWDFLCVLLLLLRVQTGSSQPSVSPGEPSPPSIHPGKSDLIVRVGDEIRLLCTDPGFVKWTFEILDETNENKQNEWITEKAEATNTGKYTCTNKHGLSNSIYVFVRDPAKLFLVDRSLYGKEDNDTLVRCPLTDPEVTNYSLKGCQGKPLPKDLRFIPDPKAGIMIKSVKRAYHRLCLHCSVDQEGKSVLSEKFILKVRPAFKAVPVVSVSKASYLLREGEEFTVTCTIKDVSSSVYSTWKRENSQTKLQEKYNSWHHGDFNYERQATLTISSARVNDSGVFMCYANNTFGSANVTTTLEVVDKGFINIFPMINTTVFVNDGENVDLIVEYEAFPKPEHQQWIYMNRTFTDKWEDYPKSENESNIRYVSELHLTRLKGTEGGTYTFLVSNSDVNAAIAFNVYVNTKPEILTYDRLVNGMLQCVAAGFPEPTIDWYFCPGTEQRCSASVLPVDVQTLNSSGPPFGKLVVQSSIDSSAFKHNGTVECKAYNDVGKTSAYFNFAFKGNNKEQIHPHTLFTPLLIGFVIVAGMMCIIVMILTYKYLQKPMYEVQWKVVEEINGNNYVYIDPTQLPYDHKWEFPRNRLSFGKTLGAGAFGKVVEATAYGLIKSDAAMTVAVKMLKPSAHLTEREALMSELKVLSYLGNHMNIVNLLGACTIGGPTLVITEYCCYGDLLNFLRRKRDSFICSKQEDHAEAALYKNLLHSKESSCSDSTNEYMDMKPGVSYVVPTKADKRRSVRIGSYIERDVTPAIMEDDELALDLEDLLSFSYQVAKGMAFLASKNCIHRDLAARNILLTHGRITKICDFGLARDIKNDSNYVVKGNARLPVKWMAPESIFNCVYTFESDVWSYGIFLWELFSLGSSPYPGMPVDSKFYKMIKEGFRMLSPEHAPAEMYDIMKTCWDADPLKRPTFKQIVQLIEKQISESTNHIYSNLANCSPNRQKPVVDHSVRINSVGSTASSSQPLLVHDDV
ASSAY_OVERVIEW: radiometric filter-binding kinase assay, Kinase HotSpot
CONDITION_DESCRIPTION: compound 0.5 µM; ATP 10 µM
Decide using residual activity alone. Strictly below 80%: TRUE. Equal to or above 80%: FALSE.

input: Strictly below 80% in residual activity? O=C1NC(=O)c2c1c1c3ccccc3n3c1c1c2c2ccccc2n1C1CCC3O1
output: TRUE

input: Also, Cc1[nH]c(/C=C2\C(=O)Nc3ccc(S(=O)(=O)N(C)c4cccc(Cl)c4)cc32)c(C)c1C(=O)N1CCN(C)CC1 please.
output: TRUE

input: Another compound to check: Cc1ccc(NC2=CC(=O)c3sc(C)nc3C2=O)cc1
output: TRUE

input: Try the compound CCCC(=O)Oc1ccc2[nH]c(C(=O)c3cc4ccccc4[nH]3)cc2c1
output: FALSE

input: Record: CC(=O)c1ccc(N2CCOCC2)cc1O
output: FALSE

input: Next compound up: Cc1ccc(Nc2nccc(N(C)c3ccc4c(C)n(C)nc4c3)n2)cc1S(N)(=O)=O
output: TRUE

input: Next compound: O=c1cc(N2CCOCC2)oc2c1ccc1ccccc12
output: FALSE

input: And what about the compound Nc1ncnc2c1c(-c1ccc(Oc3ccccc3)cc1)cn2C1CCCC1 ?
output: TRUE

input: Here is the next compound: CC#CC(=O)Nc1cc2c(Nc3ccc(F)c(Cl)c3)ncnc2cn1
output: FALSE

input: Also, COc1ccc2c(c[n+](C)c3c4cc5c(cc4ccc23)OCO5)c1OC please.
output: TRUE

input: N#C/C(=C(/N)Sc1ccc(N)cc1)c1ccccc1C(F)(F)F , same question.
output: FALSE

input: Quick one: O=C(Nc1cccc(Nc2nccc(Nc3cccc(C(F)(F)F)c3)n2)c1)C1CC1
output: FALSE

input: Entry c1ccc(-c2n[nH]cc2-c2ccnc3ccccc23)nc1 please
output: FALSE

----------
Please go through the items and note down their residual activity.
TESTED_ON: PAK2 (human) (UniProt Q13177)
Sequence (Q13177 whole entry, looked up): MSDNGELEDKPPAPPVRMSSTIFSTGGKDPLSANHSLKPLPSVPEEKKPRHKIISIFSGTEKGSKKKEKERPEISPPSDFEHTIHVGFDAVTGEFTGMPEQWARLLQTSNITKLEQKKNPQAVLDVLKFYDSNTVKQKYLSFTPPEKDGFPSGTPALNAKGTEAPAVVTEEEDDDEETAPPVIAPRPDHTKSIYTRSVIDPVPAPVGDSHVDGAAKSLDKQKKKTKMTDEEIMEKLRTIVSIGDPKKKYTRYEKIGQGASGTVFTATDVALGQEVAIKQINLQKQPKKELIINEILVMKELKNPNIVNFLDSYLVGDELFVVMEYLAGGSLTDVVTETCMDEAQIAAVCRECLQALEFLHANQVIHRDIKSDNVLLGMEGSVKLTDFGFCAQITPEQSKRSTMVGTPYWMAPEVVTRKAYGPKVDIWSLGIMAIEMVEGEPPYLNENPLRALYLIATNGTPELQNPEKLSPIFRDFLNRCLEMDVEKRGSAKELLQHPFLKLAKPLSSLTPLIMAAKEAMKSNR
ASSAY_OVERVIEW: radiometric filter-binding kinase assay, Kinase HotSpot
CONDITION_DESCRIPTION: compound 0.5 µM; ATP 10 µM
Your answer is read as %, so omit the unit and give the number.

input: Data request, read-out residual activity, for c1ccc(-c2n[nH]cc2-c2ccnc3ccccc23)nc1
output: 57

input: Follow-up item: COc1cc2ncnc(Nc3cccc(Cl)c3)c2cc1OC
output: 90.7

input: Try N#CC(C#N)=C(N)/C(C#N)=C/c1ccc(O)cc1 next.
output: 86

input: Next record, please: CCC(=O)Nc1ccc2ncnc(Nc3cccc(Br)c3)c2c1
output: 101

input: Same thing, different compound: Cc1ccc(NC2=CC(=O)c3sc(C)nc3C2=O)cc1
output: 104

input: // query: N#C/C(=C(/N)Sc1ccc(N)cc1)c1ccccc1C(F)(F)F
output: 98

input: What do you get for O=C1NC(=O)/C(=C/c2ccc3c(c2)OC(F)(F)O3)S1 ?
output: 99.9

input: And CC#CC(=O)Nc1cc2c(Nc3ccc(F)c(Cl)c3)ncnc2cn1 ?
output: 105

input: Entry to check: CCCC(=O)Oc1ccc2[nH]c(C(=O)c3cc4ccccc4[nH]3)cc2c1
output: 102

input: What do you have for CO[C@H]1CC2CC[C@@H](C)[C@@](O)(O2)C(=O)C(=O)N2CCCC[C@H]2C(=O)OC([C@H](C)C[C@@H]2CC[C@@H](O)[C@H](OC)C2)CC(=O)[C@H](C)/C=C(\C)[C@@H](O)[C@@H](OC)C(=O)[C@H](C)C[C@H](C)/C=C/C=C/C=C/1C (some centres not stated) ?
output: 101

input: Then what about the compound Oc1cccc(-c2nc(N3CCOCC3)c3oc4ncccc4c3n2)c1 ?
output: 97.5

input: # repeat for COc1ccc2c(c[n+](C)c3c4cc5c(cc4ccc23)OCO5)c1OC
output: 101

----------
TESTED_ON: CDK9 CCNT1 (human) (UniProt P50750+O60563)
Sequence (O60563 whole entry, looked up): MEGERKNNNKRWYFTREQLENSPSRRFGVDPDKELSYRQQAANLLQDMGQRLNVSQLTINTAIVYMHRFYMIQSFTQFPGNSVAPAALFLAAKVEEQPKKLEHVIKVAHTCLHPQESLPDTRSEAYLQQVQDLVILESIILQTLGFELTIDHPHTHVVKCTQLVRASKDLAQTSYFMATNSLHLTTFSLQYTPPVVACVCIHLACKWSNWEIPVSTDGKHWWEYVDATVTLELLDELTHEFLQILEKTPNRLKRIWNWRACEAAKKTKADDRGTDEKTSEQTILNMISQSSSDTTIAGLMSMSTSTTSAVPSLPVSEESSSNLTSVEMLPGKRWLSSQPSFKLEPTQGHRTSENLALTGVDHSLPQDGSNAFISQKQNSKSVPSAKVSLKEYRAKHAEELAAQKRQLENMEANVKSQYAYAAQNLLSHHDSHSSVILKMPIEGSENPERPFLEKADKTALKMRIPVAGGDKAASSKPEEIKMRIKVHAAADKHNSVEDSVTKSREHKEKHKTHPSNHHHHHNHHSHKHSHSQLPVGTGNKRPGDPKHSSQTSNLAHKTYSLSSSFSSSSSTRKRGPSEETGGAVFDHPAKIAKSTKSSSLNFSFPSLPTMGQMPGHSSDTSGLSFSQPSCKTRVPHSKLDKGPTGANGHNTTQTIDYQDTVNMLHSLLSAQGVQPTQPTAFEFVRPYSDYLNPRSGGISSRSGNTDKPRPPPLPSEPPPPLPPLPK
Sequence (P50750 whole entry, looked up): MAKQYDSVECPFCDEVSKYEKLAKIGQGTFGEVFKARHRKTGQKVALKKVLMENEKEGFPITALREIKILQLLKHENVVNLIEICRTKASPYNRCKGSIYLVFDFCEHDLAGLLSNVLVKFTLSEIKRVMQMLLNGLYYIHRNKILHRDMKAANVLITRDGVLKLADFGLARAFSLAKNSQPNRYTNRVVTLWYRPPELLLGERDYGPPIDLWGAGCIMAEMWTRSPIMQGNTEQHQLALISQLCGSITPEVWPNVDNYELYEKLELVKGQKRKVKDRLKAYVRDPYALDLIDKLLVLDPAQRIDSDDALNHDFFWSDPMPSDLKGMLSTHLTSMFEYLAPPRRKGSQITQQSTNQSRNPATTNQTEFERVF
ASSAY_OVERVIEW: radiometric filter-binding kinase assay, Kinase HotSpot
CONDITION_DESCRIPTION: compound 0.5 µM; ATP 10 µM
Give measured residual activity for each item. Keep answers brief.
Form field: result (number plus unit)

input: Value lookup for residual activity; key = Cc1[nH]c(/C=C2\C(=O)Nc3ccc(S(=O)(=O)N(C)c4cccc(Cl)c4)cc32)c(C)c1C(=O)N1CCN(C)CC1
output: 91%

input: Subsequent entry: COc1ccc(COc2ccc(Cc3cnc(N)nc3N)cc2OC)cc1
output: 92.5%

input: // repeat for CC#CC(=O)Nc1cc2c(Nc3ccc(F)c(Cl)c3)ncnc2cn1 and report
output: 90.6%

input: # repeat for Cc1ccc(Nc2nccc(N(C)c3ccc4c(C)n(C)nc4c3)n2)cc1S(N)(=O)=O
output: 91.5%

----------
TESTED_ON: CLK3 (human) (UniProt P49761)
Sequence (P49761 whole entry, looked up): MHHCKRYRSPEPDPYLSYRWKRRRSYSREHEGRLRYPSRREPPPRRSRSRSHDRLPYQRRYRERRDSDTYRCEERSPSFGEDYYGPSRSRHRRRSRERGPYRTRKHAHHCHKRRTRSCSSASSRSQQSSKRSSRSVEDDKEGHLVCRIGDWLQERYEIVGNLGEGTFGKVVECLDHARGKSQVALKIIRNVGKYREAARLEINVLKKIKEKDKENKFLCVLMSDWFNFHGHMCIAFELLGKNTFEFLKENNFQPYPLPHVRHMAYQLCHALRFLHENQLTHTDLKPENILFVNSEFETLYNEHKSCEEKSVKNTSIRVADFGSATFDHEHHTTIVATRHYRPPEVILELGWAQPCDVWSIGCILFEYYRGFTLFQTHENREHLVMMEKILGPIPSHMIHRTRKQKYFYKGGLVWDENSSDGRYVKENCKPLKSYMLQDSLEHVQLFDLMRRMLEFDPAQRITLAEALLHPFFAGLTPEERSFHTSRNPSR
ASSAY_OVERVIEW: radiometric filter-binding kinase assay, Kinase HotSpot
CONDITION_DESCRIPTION: compound 0.5 µM; ATP 10 µM
Provide the recorded residual activity for the entries that follow.
Entry rule: numbers only, all in %.

input: Looking for the measured residual activity of COc1ccc2c(c[n+](C)c3c4cc5c(cc4ccc23)OCO5)c1OC , can you help?
output: 95.2

input: Query Cc1ccc(Nc2nccc(N(C)c3ccc4c(C)n(C)nc4c3)n2)cc1S(N)(=O)=O next
output: 107

input: Similarly, Nc1ncnc2c1c(-c1ccc(Oc3ccccc3)cc1)cn2C1CCCC1 ?
output: 96.9

input: Record: O=C1NC(=O)c2c1c1c3ccccc3n3c1c1c2c2ccccc2n1C1CCC3O1
output: 97

input: Same thing, different compound: Cc1[nH]c(/C=C2\C(=O)Nc3ccc(S(=O)(=O)N(C)c4cccc(Cl)c4)cc32)c(C)c1C(=O)N1CCN(C)CC1
output: 71.1

----------
TESTED_ON: FGFR1 (human) (UniProt P11362)
Sequence (P11362 whole entry, looked up): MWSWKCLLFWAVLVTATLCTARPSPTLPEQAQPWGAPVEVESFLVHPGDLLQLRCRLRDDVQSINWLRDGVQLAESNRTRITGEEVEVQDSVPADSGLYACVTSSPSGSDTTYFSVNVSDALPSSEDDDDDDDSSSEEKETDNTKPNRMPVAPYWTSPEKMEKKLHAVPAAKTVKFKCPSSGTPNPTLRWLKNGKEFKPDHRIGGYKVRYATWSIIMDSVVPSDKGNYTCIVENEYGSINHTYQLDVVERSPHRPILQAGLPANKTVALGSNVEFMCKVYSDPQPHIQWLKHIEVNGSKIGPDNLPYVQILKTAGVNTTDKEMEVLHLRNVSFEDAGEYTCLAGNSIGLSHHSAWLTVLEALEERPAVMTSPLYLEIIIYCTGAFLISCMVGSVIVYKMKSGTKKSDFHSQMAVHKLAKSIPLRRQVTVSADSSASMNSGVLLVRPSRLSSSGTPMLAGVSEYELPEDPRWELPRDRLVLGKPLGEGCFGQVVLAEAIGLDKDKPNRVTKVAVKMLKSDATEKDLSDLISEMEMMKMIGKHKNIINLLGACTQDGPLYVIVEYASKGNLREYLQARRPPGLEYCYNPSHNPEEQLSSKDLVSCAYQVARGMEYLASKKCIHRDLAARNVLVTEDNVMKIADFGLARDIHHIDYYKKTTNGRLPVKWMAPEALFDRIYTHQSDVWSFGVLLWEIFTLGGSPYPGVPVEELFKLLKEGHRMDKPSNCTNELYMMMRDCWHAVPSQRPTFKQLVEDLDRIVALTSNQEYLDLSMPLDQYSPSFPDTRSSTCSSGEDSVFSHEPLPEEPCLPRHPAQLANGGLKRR
ASSAY_OVERVIEW: radiometric filter-binding kinase assay, Kinase HotSpot
CONDITION_DESCRIPTION: compound 0.5 µM; ATP 10 µM
ASSAY_ENDPOINT: residual activity (%)
All answers are understood in %, so give the number only.

input: Suppose we examine the compound O=S(=O)(c1cccc2cnccc12)N1CCCNCC1 ; what residual activity value has been reported?
output: 94.6

input: Would you kindly repeat that for CC[n+]1c(/C=C/N(C)c2ccccc2)n(-c2ccccc2)c2ccc(-c3nc4ccccc4s3)cc21 ?
output: 97.4

input: Next compound: Nc1ccc2ncnc(NCCc3ccc(Oc4ccccc4)cc3)c2c1
output: 86.3

input: How about this compound: O=C1NC(=O)/C(=C/c2ccc3c(c2)OC(F)(F)O3)S1
output: 94.3

input: Also need COc1cc2ncnc(Nc3cccc(Cl)c3)c2cc1OC , thanks.
output: 84.9

input: Now try Cc1ccc(NC2=CC(=O)c3sc(C)nc3C2=O)cc1 .
output: 85.3

input: What do you get for CNC(=O)c1cc(Oc2ccc(NC(=O)Nc3ccc(Cl)c(C(F)(F)F)c3)cc2)ccn1 ?
output: 90.9

input: Cool, now N#C/C(=C(/N)Sc1ccc(N)cc1)c1ccccc1C(F)(F)F
output: 108

input: Input c1ccc(-c2n[nH]c3c2oc2ccccc23)cc1
output: 85.9

input: Another: CC(C)N(CCC(=O)c1ccc2ccccc2c1)Cc1ccccc1
output: 99.5

input: Also CCCC(=O)Oc1ccc2[nH]c(C(=O)c3cc4ccccc4[nH]3)cc2c1 , if possible.
output: 96

input: Please give the result for CCN(CC)CCNC(=O)c1c(C)[nH]c(/C=C2\C(=O)Nc3ccc(F)cc32)c1C too.
output: 66.1

input: And for COc1ccc(COc2ccc(Cc3cnc(N)nc3N)cc2OC)cc1 ?
output: 108

input: Another: c1ccc(-c2n[nH]cc2-c2ccnc3ccccc23)nc1
output: 94.2

----------
TESTED_ON: DDR2 (human) (UniProt Q16832)
ASSAY_OVERVIEW: radiometric filter-binding kinase assay, Kinase HotSpot
CONDITION_DESCRIPTION: compound 0.5 µM; ATP 10 µM
Would you kindly list residual activity for each of these molecules?
Reply with a number, then the unit it belongs to.

input: Using the record for Nc1ccc2ncnc(NCCc3ccc(Oc4ccccc4)cc3)c2c1 , report its residual activity.
output: 96.8%

input: Now consider CNC(=O)c1cc(Oc2ccc(NC(=O)Nc3ccc(Cl)c(C(F)(F)F)c3)cc2)ccn1 .
output: 3.41%

input: One more molecule: CCOC(=O)c1c(C)[nH]c(/C=C2\C(=O)Nc3ccccc32)c1C
output: 98%

input: Further, for O=C1NC(=O)C(c2cn(CCCn3ccnc3)c3ccccc23)=C1Nc1ccccc1 ?
output: 95.6%

input: Then N#C/C(=C(/N)Sc1ccc(N)cc1)c1ccccc1C(F)(F)F ?
output: 102%

input: Also, Cc1ccc(S(=O)(=O)/C=C/C#N)cc1 please.
output: 96.4%

input: Next up: CCCC(=O)Oc1ccc2[nH]c(C(=O)c3cc4ccccc4[nH]3)cc2c1
output: 89.9%

input: Next entry: O=C1Nc2ccc(Cl)cc2/C1=C/c1cc(Cl)c(O)c(Cl)c1
output: 85.8%

input: Next molecule: O=C1NC(=O)/C(=C/c2ccc3c(c2)OC(F)(F)O3)S1
output: 90.1%

input: For Oc1cccc(-c2nc(N3CCOCC3)c3oc4ncccc4c3n2)c1 then?
output: 94.6%

input: And then c1ccc(-c2n[nH]cc2-c2ccnc3ccccc23)nc1 , what is it?
output: 95.1%

input: Item: CCN(CC)C(=O)c1ccc(Nc2nc(OCC3CCCCC3)c3nc[nH]c3n2)cc1
output: 109%

input: Follow-up item: COc1ccc2c(c[n+](C)c3c4cc5c(cc4ccc23)OCO5)c1OC
output: 96.1%

input: Follow-up entry: O=C(Nc1cccc(Nc2nccc(Nc3cccc(C(F)(F)F)c3)n2)c1)C1CC1
output: 81.7%
